# Test system: Mycobacterium tuberculosis
# experimentDescription: Antimycobacterial activity against Mycobacterium tuberculosis H37Rv ATCC 27294 assessed as reduction in bacterial growth incubated for 7 days under GAS medium by MABA method
# Format: functional
# assayContext: H37Rv ATCC 27294, 168 h

{"molecule": "C[C@H]1COC2(CCN(c3nc(=O)c4cc(C(F)(F)F)cc([N+](=O)[O-])c4s3)CC2)O1", "studySystem": "Mycobacterium tuberculosis", "unitTag": "µM", "relation": "<", "MIC": 0.02}
{"molecule": "NNC(=O)c1ccncc1", "studySystem": "Mycobacterium tuberculosis", "unitTag": "µM", "relation": "=", "MIC": 0.03}
{"molecule": "CO[C@H]1/C=C/O[C@@]2(C)Oc3c(C)c(O)c4c(O)c(c(/C=N/N5CCN(C)CC5)c(O)c4c3C2=O)NC(=O)/C(C)=C\\C=C\\[C@H](C)[C@H](O)[C@@H](C)[C@@H](O)[C@@H](C)[C@H](OC(C)=O)[C@@H]1C", "studySystem": "Mycobacterium tuberculosis", "unitTag": "µM", "relation": "=", "MIC": 0.04}
{"molecule": "C[C@H]1COC2(CCN(C3=NC(=O)c4cc(C(F)(F)F)cc([N+](=O)[O-])c4S3(=O)=O)CC2)O1", "studySystem": "Mycobacterium tuberculosis", "unitTag": "µM", "relation": "=", "MIC": 0.51}
{"molecule": "C[C@H]1COC2(CCN(c3nc(=O)c4cc(C(F)(F)F)cc([N+](=O)[O-])c4[s+]3[O-])CC2)O1 (stereo not given in full)", "studySystem": "Mycobacterium tuberculosis", "unitTag": "µM", "relation": "<", "MIC": 0.02}

====

# Test system: Mycolicibacterium smegmatis
# experimentDescription: Antimycobacterial activity against Mycobacterium smegmatis str. MC2 155 assessed as reduction in bacterial growth incubated for 18 to 20 hrs by broth microdilution method
# Assay type: functional

{"molecule": "C[C@H]1COC2(CCN(C3=NC(=O)c4cc(C(F)(F)F)cc([N+](=O)[O-])c4S3(=O)=O)CC2)O1", "relation": ">", "MIC, µM": 0.5}
{"molecule": "C[C@H]1COC2(CCN(c3nc(=O)c4cc(C(F)(F)F)cc([N+](=O)[O-])c4[s+]3[O-])CC2)O1 (some centres undefined)", "relation": "<", "MIC, µM": 0.013}
{"molecule": "C[C@H]1COC2(CCN(c3nc(=O)c4cc(C(F)(F)F)cc([N+](=O)[O-])c4s3)CC2)O1 [BTZ-043]", "relation": "=", "MIC, µM": 0.002}
{"molecule": "O=C(O)c1cn(C2CC2)c2cc(N3CCNCC3)c(F)cc2c1=O [CIPROFLOXACIN]", "relation": "=", "MIC, µM": 0.32}

====

# System: Mycobacterium kansasii
# experimentDescription: Antimycobacterial activity against Mycobacterium kansasii ATCC 12478 assessed as reduction in bacterial growth incubated for 6 days by MABA method
# Assay type: functional
# assayContext: ATCC 12478, 144 h
Below: a set of entries, each annotated with reported MIC.
measure: MIC (µM)

{"compound": "C[C@H]1COC2(CCN(c3nc(=O)c4cc(C(F)(F)F)cc([N+](=O)[O-])c4[s+]3[O-])CC2)O1 (stereo not given in full)", "measure": "MIC", "unitTag": "µM", "relation": "=", "endpointResult": 0.3}
{"compound": "CO[C@H]1/C=C/O[C@@]2(C)Oc3c(C)c(O)c4c(O)c(c(/C=N/N5CCN(C)CC5)c(O)c4c3C2=O)NC(=O)/C(C)=C\\C=C\\[C@H](C)[C@H](O)[C@@H](C)[C@@H](O)[C@@H](C)[C@H](OC(C)=O)[C@@H]1C", "measure": "MIC", "unitTag": "µM", "relation": "=", "endpointResult": 0.1}
{"compound": "NNC(=O)c1ccncc1", "measure": "MIC", "unitTag": "µM", "relation": "=", "endpointResult": 3.86}
{"compound": "C[C@H]1COC2(CCN(c3nc(=O)c4cc(C(F)(F)F)cc([N+](=O)[O-])c4s3)CC2)O1", "measure": "MIC", "unitTag": "µM", "relation": "<", "endpointResult": 0.02}
{"compound": "C[C@H]1COC2(CCN(C3=NC(=O)c4cc(C(F)(F)F)cc([N+](=O)[O-])c4S3(=O)=O)CC2)O1", "measure": "MIC", "unitTag": "µM", "relation": ">", "endpointResult": 1}

# credit: ChEMBL document CHEMBL3393049
